Below is a list of entries, each paired with its recorded TGI value.
test system: A498 renal; assay: NCI tumour cell line growth inhibition, 48 h

{"columns": ["compound", "testedOn", "TGI"],
 "data": [
  ["O=C(CC1(O)C(=O)Nc2ccccc21)c1ccco1 (stereo not given)", "A498 renal", "> 100 µM"],
  ["COc1cc(C(=O)O[C@@H]2[C@@H](OC(=O)c3cc(OC)c(OC)c(OC)c3)[C@@H](OC)O[C@@H]3CO[C@@H](c4ccccc4)O[C@@H]23)cc(OC)c1OC", "A498 renal", "> 100 µM"],
  ["COC1=CC23CCCN2CCc2cc4c(cc2C3C1O)OCO4 (stereo not given)", "A498 renal", "> 100 µM"],
  ["CC1(C)CC23CC(C)(C)c4cccc(c42)OCc2ccc4ccc5ccc(nc5c4n2)COc2cccc1c23", "A498 renal", "> 50 µM"],
  ["O=C(/C=N/O)Nc1cc(Cl)c(Cl)cc1Cl", "A498 renal", "55.5 µM"],
  ["COC(=O)c1cccc(N[C@@H]2c3cc4c(cc3C(c3cc(OC)c(O)c(OC)c3)[C@H]3C(=O)OCC32)OCO4)c1 (stereo not given in full)", "A498 renal", "3.46 µM"],
  ["CN(C)CC1COC2Cc3ccccc3C1O2 (stereo not given)", "A498 renal", "> 100 µM"],
  ["Clc1ccc(C2=Nn3c(nnc3-c3cc(Cl)cc(Cl)c3Cl)SC2)cc1", "A498 renal", "> 100 µM"],
  ["Brc1c(C#CCC(c2ccccc2)(c2ccccc2)c2ccccc2)ccc(C#CCC(c2ccccc2)(c2ccccc2)c2ccccc2)c1Br", "A498 renal", "> 100 µM"],
  ["C/C(=N\\Nc1nc2ccccc2n1C)c1cnccn1", "A498 renal", "> 63.3 µM"]
]}

====

test system: HL-60(TB) leukemia; experiment: NCI tumour cell line growth inhibition, 48 h

{"columns": ["compound", "unit", "comparisonSign", "TGI"],
 "data": [
  ["COc1ccc(-c2nc(C(=O)c3ccccc3)n(CC(=O)c3ccccc3)c2-c2ccc(OC)cc2)cc1", "µM", ">", 100],
  ["O=C(CC1(O)C(=O)Nc2ccccc21)c1ccco1 (stereo not drawn)", "µM", ">", 100],
  ["CCOC(=O)Cc1csc2[n+]1C(=O)/C(=C\\c1cccc(Cl)c1Cl)S2", "µM", "=", 51.5],
  ["O=S(=O)(SCc1ccccc1)C(c1ccccc1)c1ccccc1", "µM", "=", 77],
  ["CC(C)(C)c1cc2c(O)c(c1)Cc1cc(C(C#N)(Cc3ccc4ccccc4c3)Cc3ccc4ccccc4c3)cc(c1O)Cc1cc(C(C)(C)C)cc(c1O)Cc1cc(C(C#N)(Cc3ccc4ccccc4c3)Cc3ccc4ccccc4c3)cc(c1O)C2", "µM", ">", 100],
  ["CC(C)(C)NC(=O)NC12CC3CC(CC(F)(C3)C1)C2", "µM", ">", 100],
  ["Cc1ccc2c(sc(-c3ccc4c(c3)sc(-c3ccc5c(c3)sc(-c3ccc(N(C)C)cc3)[n+]5C)[n+]4C)[n+]2C)c1S(=O)(=O)O (tested in a mixture with another compound)", "µM", ">", 100],
  ["COc1ccc(N/N=C(\\CCN(C)C)c2ccccc2)cc1", "µM", "=", 12.9],
  ["S=C(Nc1ccc(Cl)cc1)Nc1ccc(-c2nc3ccccc3o2)cc1", "µM", ">", 100],
  ["CCN(CC)CCN1C(=O)c2c(c(-c3ccccc3)c3ccccc3c2-c2ccccc2)C1=O", "µM", ">", 100],
  ["CCCCOC(=O)NC(Nc1cccc(C(F)(F)F)c1)(C(F)(F)F)C(F)(F)F", "µM", "=", 56.2],
  ["CC(C)CCC[C@@H](C)C1CCC2[C@@H]3CC=C4C[C@@H](C(=O)NCC[N+](C)(C)CCCS(=O)(=O)[O-])CC[C@]4(C)C3CC[C@@]21C (stereo partly drawn)", "µM", "=", 28.3],
  ["O=C(O)/C(Cl)=C(\\Cl)C(=O)NC1C2CC3CC(C2)CC1C3 (stereo not drawn)", "µM", ">", 100],
  ["CCOP(=O)(C/C=C/Cn1nc(Br)c(=O)[nH]c1=O)OCC", "µM", ">", 100],
  ["O=C(Nc1cccc(Cc2cccc(NC(=O)c3ccccc3)c2)c1)c1ccccc1", "µM", ">", 100],
  ["CCCCCCCCCc1cc[n+](CC(=O)c2ccc([N+](=O)[O-])cc2)cc1", "µM", "=", 3.64],
  ["C[C@]12Cc3cnn(-c4ccc(F)cc4)c3NC1CC[C@@H]1C2CC[C@@]2(C)C1CC[C@@H]2O (stereo partly drawn)", "µM", "=", 11.8],
  ["O=C(/C=C/C=C/c1c(C2CC2)nc2ccccc2c1-c1ccc(F)cc1)c1cccs1", "µM", "=", 5.48]
]}
